System: COLO 205
method.description: NCI tumour cell line growth inhibition, 48 h
The source made the active and inactive calls. Cut-off read from the data, not from the text of the source: active = GI50 up to about 1.1 µM and inactive = higher.
Pick from t (active), f (inactive) when you respond.

**Q:** Hello, I am checking results. What call was entered for CCN(CC)CC(C)(C)C(=O)/C=C/c1ccc(/C=C/C(=O)C(C)(C)CN(CC)CC)cc1 ?
**A:** t

**Q:** Test call for this compound, please: Cc1cccc(C)c1NC(=O)CCCC(=O)C(C#N)c1ccc(Cl)cc1 (stereo not given)
**A:** f

**Q:** Entry COc1ccc(/C=C/C(C(=O)O)C(=O)O)cc1 : call = ?
**A:** f

**Q:** Dear colleague, could you share the recorded outcome for COc1cc(-c2cc(=O)c3ccccc3o2)ccc1N when you have a moment?
**A:** f

**Q:** Assay outcome for C=C(C)[C@@H](C(=O)OC)N1C(=O)c2ccccc2C1=O : what was it?
**A:** f

Others:
**Q:** // outcome(item) with item = Cc1ccc(NC(=O)C2C3CCC(O3)C2C(=O)O)cc1 (stereo not given)
**A:** f

**Q:** Recorded test outcome, item CC1CCC2(NC1)OC1CC3[C@@H]4CC=C5C=CCC[C@]5(C)C4CC[C@]3(C)C1C2C (stereo not given in full)
**A:** f

**Q:** What classification did CN(C)C1(N(C)C)Oc2c(c(=O)n(C)c(=O)n2C)C(c2ccc(F)cc2)C1(F)F (stereo not given) end up with in this test?
**A:** f

**Q:** Entry COc1ccc(-c2nnc(-c3ccncc3)o2)cc1 : call = ?
**A:** f

**Q:** Assay result, entry O=C(NNc1cn[nH]c(=O)c1Cl)/C(=C/c1ccc2c(c1)OCO2)NC(=O)c1ccccc1 — outcome?
**A:** f

----------
System: SNB-75
method.description: NCI tumour cell line growth inhibition, 48 h
Calls of active or inactive are those of the source. No stated cut-off is given here; in the data, active = GI50 up to about 1.1 µM and inactive = higher. Residues, ends and D or L forms follow the SMILES beside them. *: point of attachment. Bn = c1ccc(C*)cc1
property.measured: GI50

**Q:** Name the reported GI50 value associated with the compound N#CC(Cl)CS(=O)(=O)c1ccccc1 (stereo not given)
**A:** 15.2 µM (inactive)

**Q:** What GI50 value was documented for this compound, Nc1nc2[nH]cc(CCc3ccc(C(=O)N[C@@H](CCC(=O)O)C(=O)O)cc3)c2c(=O)[nH]1 ?
**A:** > 100 µM (inactive)

Take each entry in turn and give its GI50.
1. CC1(C)O[C@@H](CP(c2cccc3ccccc23)c2cccc3ccccc23)[C@H](CP(c2cccc3ccccc23)c2cccc3ccccc23)O1
2. CN(CCCCN1CCCC1)CCCCN(C)C(=O)Cc1ccc(Cl)c(Cl)c1
3. COc1cccc2c1C(=O)c1ccc3cc(CO)cc(O)c3c1C2=O
4. OC1[C@H]([C@H]2CCCC[C@@H]2O)CCC[C@@H]1[C@@H]1CCCC[C@H]1O (stereo not given in full)
5. CCOC(=O)C1=C(Nc2cccc(OC)c2)OCC1=O

**A:**
1: > 100 µM (inactive); 2: 15 µM (inactive); 3: 4.29 µM (inactive); 4: > 100 µM (inactive); 5: > 100 µM (inactive)

# batch: return GI50 for each of the 3 compounds below
1. c1cc(-c2cnc(-c3ccc4c(c3)CCCO4)o2)ccn1
2. CCOC(=O)C(C(=O)OCC)C1C=CCC2c3ccccc3COCC21 (stereo not given)
3. Nc1c(C(=O)O)nnc2cc(Cl)ccc12

**A:**
12.2 µM (inactive)
96.6 µM (inactive)
> 100 µM (inactive)

Provide the reported GI50 of each entry below, same order.
1. CCCCCCCCCCCCCCCCCC(=O)Nc1ccn(C2CCC(COP(=O)(O)O)O2)c(=O)n1 (stereo not given)
2. Cc1cc(Br)ccc1/N=N/C1C(=O)ON=C1c1ccccc1 (stereo not given)
3. CC(=O)O[C@@H]1CC[C@@]2(C)C(=O)C34C[C@@]5(C)C([C@@H](C)CCCC(C)C)CCC5(C)[C@](O)(O3)C(=O)[C@H]4C2C1(C)C (stereo not given in full)
4. COC(=O)C(CC(C)C)NC(=O)C(N)Cc1ccc(OCc2ccccc2)cc1 (stereo not given) (H-Tyr(Bn)-Leu-OMe; configuration not given here)

**A:**
1. > 100 µM (inactive)
2. > 100 µM (inactive)
3. 15.7 µM (inactive)
4. > 10 µM (inactive)

----------
System: HOP-18
method.description: NCI tumour cell line growth inhibition, 48 h
The source made the active and inactive calls. Cut-off read from the data, not from the text of the source: active = GI50 up to about 1.1 µM and inactive = higher.
Please respond with reported GI50 for every item in the list.

Solved cases (8 shown):
**Q:** Which GI50 is listed for COc1c(OC)c(N)c2cc(C)c(=O)c(C)cc2c1N ?
**A:** > 100 µM (inactive)

**Q:** Which GI50 value belongs to CN(C)C(=S)SSC(=S)N(C)C ?
**A:** > 100 µM (inactive)

**Q:** What value of measured GI50 is listed for COc1cc(-c2cc(=O)c3ccccc3o2)ccc1N ?
**A:** 27.5 µM (inactive)

**Q:** Requested field: GI50. Item: N#Cc1cc([N+](=O)[O-])ccc1NC(=O)C(=O)Nn1c(S)nc2ccccc2c1=O
**A:** > 100 µM (inactive)

**Q:** Given COC(=O)C(/C(=N/NC(N)=O)C(=O)Nc1c(C)cccc1C(C)(C)C)c1nc2ccc(Cl)cc2nc1O (stereo not given) , state its recorded GI50.
**A:** > 100 µM (inactive)

**Q:** I have this compound here, COc1cc2c(cc1Oc1ccc(OC)c3c1CC1c4c(cc(OC)c(OC)c4-3)CCN1C)CC1c3c(cc(OC)c(OC)c3-2)CCN1C (stereo not given) , and I need its recorded GI50.
**A:** 14 µM (inactive)

**Q:** Reported GI50, compound Cc1ccc(NC(=O)/C(Cl)=C(/Cl)C(=O)O)cc1 : ____
**A:** 19.1 µM (inactive)

**Q:** I am curious: what GI50 value has been reported for C=C1C(=O)OC2C(C)C3C=CC(=O)[C@@]3(C)C(OC(=O)/C(C)=C/C)C1[C@@H]2OC(C)=O (stereo not given in full) ?
**A:** 1.79 µM (inactive)

// each listed compound needs a value for GI50
1. COc1c(OC2OC(CO)C(O)C(O)C2O)cc2c(c1OC)-c1ccc(OC)c(=O)cc1C(NC(C)=O)CC2 (stereo not given)
2. CCOP(=O)(OCC)C1CCCOC1=O (stereo not given)

**A:**
1. > 100 µM (inactive)
2. > 100 µM (inactive)

----------
Tested on: SF-268
method.description: NCI tumour cell line growth inhibition, 48 h
The source made the active and inactive calls. No stated cut-off is given here; in the data, active = GI50 up to about 1.1 µM and inactive = higher.
property.measured: GI50

**Q:** Give its GI50 value. Item: Cc1cc(Cl)ccc1OCC(=O)Nc1nc(N)nc(N)n1
**A:** > 100 µM (inactive)

**Q:** GET /values?readout=GI50&item= CN[C@@H](C)[C@H](OP(=O)(O)OC1[C@@H](O)[C@H](O)C(O)[C@H](O)[C@@H]1O)c1ccccc1 (stereo not given in full)
**A:** > 100 µM (inactive)

**Q:** # lookup: GI50 of CC(C)=CC1C(C(=O)Oc2ccccc2C(C)C)C1(C)C (stereo not given)
**A:** 35.5 µM (inactive)

# per-item lookup of GI50; items listed below
1. CN1CCN(CCn2c3c4ccccc4ccc3c3oc(=O)c4ccccc4c32)CC1
2. CCCCCCCCCC[C@@H](O)[C@@H]1CC[C@@H]([C@@H]2CC[C@@H]([C@@H](O)CCCCCCCCCC[C@H](O)CC3=CC(C)OC3=O)O2)O1 (stereo not given in full)
3. COc1cc(Cc2ccc3c(c2C#N)N(C)c2ccccc2S3)cc(OC)c1OC
4. CC(C)(C)OC(=O)NC(Cc1ccccc1)NC(=O)NC(=O)OCc1ccccc1 (stereo not given)
5. O=C(Nc1ccc2nc(-c3ccccc3)cn2c1)Oc1ccccc1

**A:**
["6 µM (inactive)", "3.87 µM (inactive)", "> 100 µM (inactive)", "40.3 µM (inactive)", "> 100 µM (inactive)"]

Return reported GI50 values for all items listed beneath this line.
1. O=C(NN1C(=O)C(Cl)C1c1ccccc1Cl)c1ccccc1O (stereo not given)
2. [O-][S+](c1ccc(O)cc1)c1ccc(O)cc1

**A:**
71.1 µM (inactive)
> 100 µM (inactive)

----------
Tested on: OVCAR-5
method.description: NCI tumour cell line growth inhibition, 48 h
The source made the active and inactive calls. Rule as the data show it: active = GI50 up to about 1.1 µM and inactive = higher.
Field: GI50. Provide a value for each of the compounds that follow.

Please review the following examples before continuing.
**Q:** Form entry - test system: OVCAR-5; read-out: GI50; compound: COc1cc2c(c(OC3OC(CO)C(O)C(O)C3O)c1)C(=O)CC(c1ccc(O)cc1)O2 (stereo not drawn)
**A:** > 100 µM (inactive)

**Q:** Provide value of GI50 for this record tested with OVCAR-5: CCOP(=O)(OCC)C1CCCOC1=O (stereo not drawn)
**A:** > 100 µM (inactive)

**Q:** Requested read-out GI50, target or system OVCAR-5, entry CS(=O)(=O)C(C#N)c1nc2ccccc2nc1Cl (stereo not drawn)
**A:** > 39.9 µM (inactive)

**Q:** Observed GI50 on OVCAR-5 for CCOC(=O)/C=C(/C(=O)OCC)n1cc(C)c(=O)[nH]c1=O , please.
**A:** 5.87 µM (inactive)

**Q:** Which GI50 is reported with OVCAR-5 for this entry: CN1C(=O)C(CC=O)(C(C)(C)C)c2ccccc21 (stereo not drawn) ?
**A:** > 100 µM (inactive)

**Q:** What reported GI50 corresponds to Cn1cnc([N+](=O)[O-])c1Sc1nnnn1-c1ccccc1 on OVCAR-5?
**A:** 17.8 µM (inactive)

**Q:** Notebook entry, OVCAR-5 assay: GI50 of O=C(c1ccccc1F)c1c(NCc2ccccc2)c(=O)c1=O = ?
**A:** > 100 µM (inactive)

**Q:** Hi! What's the reported GI50 for CC1CCC2(NC1)OC1CC3[C@@H]4CC=C5C=CCC[C@]5(C)C4CC[C@]3(C)C1C2C (stereo partly drawn) on OVCAR-5?
**A:** 23.6 µM (inactive)

Parameters: items (list). Returns: GI50 for each item.
1. CC1=NN(c2ccccc2)C(=O)C1C(=O)C(=O)Nc1ccc(C)cc1C (stereo not drawn)
2. C=C(C)[C@@H](C(=O)OC)N1C(=O)c2ccccc2C1=O
3. NCCc1ccc(S(=O)(=O)O)cc1[N+](=O)[O-]
4. CC(=O)/C(=N\O)C(=O)NCc1ccccc1
5. N#CC(C#N)=C1NC(=O)CC(=O)N1
6. CC(=O)c1ccc(Nc2nc3ccccc3c3occc23)cc1
7. NC(Cc1ccccc1)C(=O)O (stereo not drawn)

**A:**
1: > 100 µM (inactive); 2: > 100 µM (inactive); 3: > 100 µM (inactive); 4: > 100 µM (inactive); 5: > 100 µM (inactive); 6: 36 µM (inactive); 7: > 100 µM (inactive)
